test: Nrf2 qHTS screen for inhibitors: A549 ARE-Fluc Cytotoxicity Counterscreen for Hit Validation; conditions: A549 ARE-Fluc cells; series mostly up to 46.1 µM;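 also: cells exposed to compounds for 18 to 24 hours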
Hit rate of the full screen: of about 1,400 compounds, about 25 (2%) were called active. Roughly 19% stayed inconclusive and do not appear here. These entries were drawn from the full list.
assay-endpoint: outcome

A selection of reference data follows.
{"molecule": "Cc1ccc(NS(=O)(=O)c2cccs2)cc1S(=O)(=O)N1CCCCCC1", "outcome": "inactive"}
{"molecule": "CCC(C)(C)c1ccc(Oc2ccc(NC(=O)COC(=O)C3=COCCO3)cc2)cc1", "outcome": "inactive"}
{"molecule": "Brc1c(CSc2nncc3ccccc23)nc2ccccn12", "outcome": "inactive"}
{"molecule": "Cc1c(Cl)cccc1NC(=O)Cn1cc(C(=O)c2cccs2)c2ccccc21", "outcome": "inactive"}
{"molecule": "CC(C)(C)n1ncc2c(=O)n(Cc3ccc(C(=O)c4ccccc4)cc3)cnc21", "outcome": "inactive"}
{"molecule": "O/N=C(\\C[n+]1ccccc1)c1ccc(Br)cc1", "outcome": "inactive"}
{"molecule": "CC(=O)N1CCCc2cc(S(=O)(=O)N3CCCC(C(=O)N4CCN(c5cccc(Cl)c5)CC4)C3)ccc21 (stereo unspecified)", "outcome": "inactive"}
{"molecule": "CN(Cc1cccnc1)C(=O)c1cc(COc2ccc3ncccc3c2)on1", "outcome": "inactive"}

Q: Item under review: O=C1C=C(c2ccnc3cc(Cl)ccc23)C[C@@H](c2ccc3c(c2)OCO3)C1 . Reported outcome?
Ans: inactive

Q: Record: CCCCNc1nc2c(c(=O)n(C)c(=O)n2C)n1Cc1cccc(OC)c1
Ans: inactive

Q: Record: CC(C)(C)c1ccc(Oc2ccc(N)cc2)cc1
Ans: inactive
